Source: the supplement of paper PMC10266784

B1: library; numbered along this chain (parent)
chain: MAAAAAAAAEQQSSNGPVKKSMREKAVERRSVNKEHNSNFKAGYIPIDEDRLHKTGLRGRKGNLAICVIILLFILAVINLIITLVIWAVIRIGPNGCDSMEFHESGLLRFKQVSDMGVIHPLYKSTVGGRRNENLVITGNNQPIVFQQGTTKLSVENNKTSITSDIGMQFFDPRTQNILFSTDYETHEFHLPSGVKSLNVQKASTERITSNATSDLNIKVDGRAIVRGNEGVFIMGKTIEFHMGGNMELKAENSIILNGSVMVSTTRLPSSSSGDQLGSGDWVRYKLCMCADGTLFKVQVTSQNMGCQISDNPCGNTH

Variants of: B1
ASSAY_REMARKS: SGCB cell-surface expression functional score (HA stain, bin4 vs bin1, normalised to synonymous) (log10 ratio); higher = more cell-surface SGCB (functional)
So basically: SGCB cell-surface expression functional score (log10) at -0.1 or higher? That is satisfied. Lower than -0.1? That is not satisfied.

Sample answers from the record:
Qu. Decide: SGCB cell-surface expression functional score (log10) of `E185Y` >= -0.1?
Ans. satisfied

Qu. Decide: SGCB cell-surface expression functional score (log10) of `N312Q` >= -0.1?
Ans. not satisfied

Qu. Decide: SGCB cell-surface expression functional score (log10) of `E133G` >= -0.1?
Ans. not satisfied

Qu. Decide: SGCB cell-surface expression functional score (log10) of `R284Y` >= -0.1?
Ans. satisfied

Qu. Decide: SGCB cell-surface expression functional score (log10) of `G274L` >= -0.1?
Ans. satisfied

Next item in the queue.
Qu. Decide: SGCB cell-surface expression functional score (log10) of `V127H` >= -0.1?
Ans. not satisfied
